Where these numbers come from: paper PMC12166061

- Target System: murine TRIM21 PRY-SPRY domain (Mus musculus)
- Construct: mouse TRIM21 PRY-SPRY domain (residues V291-M470, UniProt-ID: Q62191); made in house; host or cells: E. coli BL21(DE3)
- Sequence (Q62191 291-470): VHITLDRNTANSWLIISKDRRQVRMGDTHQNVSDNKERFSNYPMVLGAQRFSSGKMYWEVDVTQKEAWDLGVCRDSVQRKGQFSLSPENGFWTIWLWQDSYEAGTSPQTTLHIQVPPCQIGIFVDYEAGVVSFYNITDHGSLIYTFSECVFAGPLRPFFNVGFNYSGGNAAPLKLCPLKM
- Experiment Summary: Differential scanning fluorimetry (DSF, ΔTm), mouse TRIM21 PRY-SPRY domain
- Assay type: binding
- Protocol Conditions: 2 mM compound, 8 μM protein
- Protocol: Briefly, recombinant murine and human TRIM21 PRY-SPRY domain at a concentration of 8 μM were mixed with 2 mM compound in their respective SEC buffer. SYPRO Orange (5000×, Invitrogen) was added as a fluorescence probe (1 µl per mL). Subsequently, temperature-dependent protein unfolding profiles were measured using the QuantStudio™ 5 realtime PCR machine (Thermo Fisher). Excitation and emission filters were set to 465 nm and 590 nm, respectively. […]
// label = 1 (yes) if Tm-shift mTRIM21 is not less than -0.1 °C, otherwise 0 (no)

Some entries whose results are on file:
[[record]]
compound = "O=S1(=O)CCN(Cc2ccco2)CC1"
discrete_label = "0 (no)"

[[record]]
compound = "CC(=O)N1CCCC2(CCCCCC2)C1"
discrete_label = "0 (no)"

[[record]]
compound = "COCC(=O)NCc1ccccc1"
discrete_label = "0 (no)"

[[record]]
compound = "CC(=O)Nc1cc2c(cc1C)OCO2"
discrete_label = "1 (yes)"

[[record]]
compound = "CC1CN(C(=O)c2cnsn2)C(C)CO1 (stereo not shown)"
discrete_label = "0 (no)"


Now consider the entry below.
Ask | For this compound, is measured Tm-shift mTRIM21 -0.1 °C or higher? CCc1nnc(NC(=O)C2CCCO2)s1 (stereo not shown)
Reply | 0 (no)
